Catalogue of IC50 (read off the curve), OD (450nM) readings, one per entry.
target: human complement Component 5 (C5) (human, UniProt P01031 19-1676, limits assumed); experiment: cell-based or functional assay
Sequence (P01031 19-1676 limits assumed): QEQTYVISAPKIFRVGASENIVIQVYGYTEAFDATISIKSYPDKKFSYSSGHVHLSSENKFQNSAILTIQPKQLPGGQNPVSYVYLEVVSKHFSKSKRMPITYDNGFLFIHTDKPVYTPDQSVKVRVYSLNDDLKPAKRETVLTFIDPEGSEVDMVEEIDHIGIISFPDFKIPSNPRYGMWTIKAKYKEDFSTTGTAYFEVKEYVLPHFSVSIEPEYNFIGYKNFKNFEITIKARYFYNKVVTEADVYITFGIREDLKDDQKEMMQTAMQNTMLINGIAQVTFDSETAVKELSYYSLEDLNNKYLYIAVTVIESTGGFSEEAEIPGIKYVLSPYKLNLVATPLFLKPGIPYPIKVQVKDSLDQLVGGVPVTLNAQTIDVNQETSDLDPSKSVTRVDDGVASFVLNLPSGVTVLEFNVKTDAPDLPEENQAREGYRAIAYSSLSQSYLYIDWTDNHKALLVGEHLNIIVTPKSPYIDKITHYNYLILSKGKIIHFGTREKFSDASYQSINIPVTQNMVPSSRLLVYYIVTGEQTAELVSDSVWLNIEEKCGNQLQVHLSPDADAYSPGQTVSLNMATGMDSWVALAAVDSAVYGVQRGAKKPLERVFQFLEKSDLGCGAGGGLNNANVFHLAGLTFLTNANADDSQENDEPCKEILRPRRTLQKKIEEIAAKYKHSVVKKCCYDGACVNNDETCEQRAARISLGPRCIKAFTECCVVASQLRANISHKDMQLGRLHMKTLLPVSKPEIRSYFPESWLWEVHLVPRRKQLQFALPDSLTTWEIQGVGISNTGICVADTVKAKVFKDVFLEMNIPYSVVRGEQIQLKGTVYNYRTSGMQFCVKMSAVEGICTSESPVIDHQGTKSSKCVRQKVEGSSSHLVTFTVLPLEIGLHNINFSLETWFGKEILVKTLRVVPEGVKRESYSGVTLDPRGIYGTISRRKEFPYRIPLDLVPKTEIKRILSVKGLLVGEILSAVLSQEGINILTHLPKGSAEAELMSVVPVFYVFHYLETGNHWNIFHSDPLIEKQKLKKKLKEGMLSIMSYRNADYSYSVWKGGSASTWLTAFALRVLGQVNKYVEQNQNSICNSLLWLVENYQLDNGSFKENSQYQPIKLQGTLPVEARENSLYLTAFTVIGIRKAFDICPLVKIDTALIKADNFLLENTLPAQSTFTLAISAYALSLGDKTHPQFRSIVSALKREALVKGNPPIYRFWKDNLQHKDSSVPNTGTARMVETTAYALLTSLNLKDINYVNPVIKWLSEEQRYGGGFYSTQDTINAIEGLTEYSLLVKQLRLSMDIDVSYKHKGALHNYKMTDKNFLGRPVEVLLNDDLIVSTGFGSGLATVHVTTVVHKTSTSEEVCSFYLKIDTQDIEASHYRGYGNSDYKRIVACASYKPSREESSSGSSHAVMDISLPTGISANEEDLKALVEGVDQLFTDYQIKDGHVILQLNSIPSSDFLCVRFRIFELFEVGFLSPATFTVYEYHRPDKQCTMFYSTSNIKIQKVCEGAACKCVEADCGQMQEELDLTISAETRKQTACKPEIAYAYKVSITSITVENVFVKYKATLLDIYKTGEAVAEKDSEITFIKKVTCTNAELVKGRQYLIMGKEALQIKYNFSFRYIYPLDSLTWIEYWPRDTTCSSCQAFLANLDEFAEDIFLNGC
MEASUREMENT_TYPE: IC50 (read off the curve), OD (450nM)

BINDER	MEASUREMENT_TYPE	READING
H1L2-Fab (Fab, V domains shown) VH: QVQLVQSGAEVKKPGASVKVSCKASGYTFTDEYMNWVRQAPGQSLEWMGYINPNNGGADYNQKFQGRVTMTVDQSISTAYMELSRLRSDDTAVYFCARLGYSNPYFDFWGQGTLVTVSS VL: DIVLTQSPATLSLSPGERATLSCRASQDVNTAVAWYQQKPDQSPKLLIYWASTRHTGVPARFTGSGSGTDYTLTISSLQPEDFAVYFCQQHHVSPWTFGGGTKVEIK	IC50 (read off the curve), OD (450nM)	~0.4 µg/mL
H2L1-Fab (Fab, V domains shown) VH: EVQLVQSGAEVKKPGASVKVSCKASGYTFTDEYMNWVRQAPGKSLEWVGYINPNNGGADYNQKFQGRVTITVDQSASTAYMELSSLRSEDTAVYFCARLGYSNPYFDFWGQGTLVTVSS VL: DIVLTQSPDSLAVSLGERATINCKASQDVNTAVAWYQQKPDQSPKLLIYWASTRHTGVPARFTGSGSGTDYTLTISSLQAEDVAVYFCQQHHVSPWTFGGGTKVEIK	IC50 (read off the curve), OD (450nM)	~0.5 µg/mL
H1L1-Fab (Fab, V domains shown) VH: QVQLVQSGAEVKKPGASVKVSCKASGYTFTDEYMNWVRQAPGQSLEWMGYINPNNGGADYNQKFQGRVTMTVDQSISTAYMELSRLRSDDTAVYFCARLGYSNPYFDFWGQGTLVTVSS VL: DIVLTQSPDSLAVSLGERATINCKASQDVNTAVAWYQQKPDQSPKLLIYWASTRHTGVPARFTGSGSGTDYTLTISSLQAEDVAVYFCQQHHVSPWTFGGGTKVEIK	IC50 (read off the curve), OD (450nM)	~0.3 µg/mL
H2L2-Fab (Fab, V domains shown) VH: EVQLVQSGAEVKKPGASVKVSCKASGYTFTDEYMNWVRQAPGKSLEWVGYINPNNGGADYNQKFQGRVTITVDQSASTAYMELSSLRSEDTAVYFCARLGYSNPYFDFWGQGTLVTVSS VL: DIVLTQSPATLSLSPGERATLSCRASQDVNTAVAWYQQKPDQSPKLLIYWASTRHTGVPARFTGSGSGTDYTLTISSLQPEDFAVYFCQQHHVSPWTFGGGTKVEIK	IC50 (read off the curve), OD (450nM)	~0.5 µg/mL
H3L1-Fab (Fab, V domains shown) VH: QVQLVQSGAEVKKPGASVKVSCKASGYTFTDEYMNWVRQAPGQSLEWMGYINPNNGGADYNPSLKSRVTISVDQSISTAYMELSRLRSDDTAVYFCARLGYSNPYFDFWGQGTLVTVSS VL: DIVLTQSPDSLAVSLGERATINCKASQDVNTAVAWYQQKPDQSPKLLIYWASTRHTGVPARFTGSGSGTDYTLTISSLQAEDVAVYFCQQHHVSPWTFGGGTKVEIK	IC50 (read off the curve), OD (450nM)	~0.5 µg/mL
H3L2-Fab (Fab, V domains shown) VH: QVQLVQSGAEVKKPGASVKVSCKASGYTFTDEYMNWVRQAPGQSLEWMGYINPNNGGADYNPSLKSRVTISVDQSISTAYMELSRLRSDDTAVYFCARLGYSNPYFDFWGQGTLVTVSS VL: DIVLTQSPATLSLSPGERATLSCRASQDVNTAVAWYQQKPDQSPKLLIYWASTRHTGVPARFTGSGSGTDYTLTISSLQPEDFAVYFCQQHHVSPWTFGGGTKVEIK	IC50 (read off the curve), OD (450nM)	~0.5 µg/mL
H5L2-Fab (Fab, V domains shown) VH: QVQLKQSGAEVKKPGASVKVSCKASGYTFTDEYMNWVRQAPGKSLEWMGYINPNNGGADYNQKFQGRVTMTVDQSISTAYMELSRLRSDDTAVYFCARLGYSNPYFDFWGQGTLVTVSS VL: DIVLTQSPATLSLSPGERATLSCRASQDVNTAVAWYQQKPDQSPKLLIYWASTRHTGVPARFTGSGSGTDYTLTISSLQPEDFAVYFCQQHHVSPWTFGGGTKVEIK	IC50 (read off the curve), OD (450nM)	~0.4 µg/mL
